meta.source: paper PMC9266914

# assayInfo: Cyclic voltammetry
# Type: physicochemical
# experimentalSetup: CH2Cl2, NBu4PF6, Pt, 100 mV.s^−1
# reported Epa2 0/+1; entries follow
The response must be a number in V vs. SCE with no trailing unit.

Field: example entries. Status: answers known.
Cn1c2c(sc1=S)[S][Au-]1([S]c3sc(=S)n(C)c3[S]1)[S]2 [[AuSMe(=S)]^−1]
0.73
CCCn1c2c(sc1=S)[S][Au-]1([S]c3sc(=S)n(CCC)c3[S]1)[S]2 [[AuSPr(=S)]^−1]
0.73

Find the recorded Epa2 0/+1 belonging to CCN1C(=C(C#N)C#N)SC2=C1[S][Au-]1([S]2)[S]C2=C([S]1)N(CC)C(=C(C#N)C#N)S2 [[AuSEt(=C(CN)2)]^−1] and report it. 1.13

What value of measured Epa2 0/+1 is listed for CCn1c2c(sc1=S)[S][Au-]1([S]c3sc(=S)n(CC)c3[S]1)[S]2 [[AuSEt(=S)]^−1] ? 0.71

Param item = CCn1c2c(sc1=O)[S][Au-]1([S]c3sc(=O)n(CC)c3[S]1)[S]2 [[AuSEt(=O)]^−1] ; retrieve measured Epa2 0/+1. 0.89

Form field: reported Epa2 0/+1 of CCCCn1c2c(sc1=S)[S][Au-]1([S]c3sc(=S)n(CCCC)c3[S]1)[S]2 [[AuSBu(=S)]^−1] 0.75

----------
Quick reference: Stern Volmer quenching constant KSV of the listed items.
# testedSystem: human serum albumin (HSA) (Homo sapiens)
# Sequence (P02768 25-609): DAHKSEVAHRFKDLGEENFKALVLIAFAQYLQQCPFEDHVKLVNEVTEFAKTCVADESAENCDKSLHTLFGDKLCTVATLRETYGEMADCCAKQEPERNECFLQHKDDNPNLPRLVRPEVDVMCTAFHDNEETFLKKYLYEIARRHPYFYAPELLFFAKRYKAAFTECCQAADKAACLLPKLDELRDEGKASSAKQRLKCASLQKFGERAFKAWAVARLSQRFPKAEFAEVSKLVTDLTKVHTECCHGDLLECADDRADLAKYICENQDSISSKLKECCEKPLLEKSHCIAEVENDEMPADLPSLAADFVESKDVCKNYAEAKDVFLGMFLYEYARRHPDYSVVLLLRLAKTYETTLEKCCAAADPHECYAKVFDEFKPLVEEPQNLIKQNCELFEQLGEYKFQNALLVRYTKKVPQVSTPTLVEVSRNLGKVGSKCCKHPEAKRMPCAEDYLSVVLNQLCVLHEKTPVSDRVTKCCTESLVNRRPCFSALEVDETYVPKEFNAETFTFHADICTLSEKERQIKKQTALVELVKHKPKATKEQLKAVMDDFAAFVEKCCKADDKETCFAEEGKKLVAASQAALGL
# assayInfo: HSA fluorescence quenching (Stern-Volmer)
# Format: binding
# experimentalSetup: HSA, Hepes pH 7.4

Use the examples below as a reference point.
CC(C)n1c2c(sc1=S)[Se][Au-]1([Se]c3sc(=S)n(C(C)C)c3[Se]1)[Se]2.c1ccc([P+](c2ccccc2)(c2ccccc2)c2ccccc2)cc1 [[P][AuSeiPr(=S)]]
3.63 ± 0.04 x 105 L mol-1
CCn1c2c(sc1=S)[S][Au-]1([S]c3sc(=S)n(CC)c3[S]1)[S]2.c1ccc([P+](c2ccccc2)(c2ccccc2)c2ccccc2)cc1 [[P][AuSEt(=S)]]
6.48 ± 0.06 x 105 L mol-1
CCn1c2c(sc1=[Se])[S][Au-]1([S]c3sc(=[Se])n(CC)c3[S]1)[S]2.c1ccc([P+](c2ccccc2)(c2ccccc2)c2ccccc2)cc1 [[P][AuSEt(=Se)]]
5.00 ± 0.17 x 105 L mol-1

Now turn to the next compound.
Would you mind telling me what Stern Volmer quenching constant KSV value was observed for CCCCn1c2c(sc1=S)[S][Au-]1([S]c3sc(=S)n(CCCC)c3[S]1)[S]2.c1ccc([P+](c2ccccc2)(c2ccccc2)c2ccccc2)cc1 [[P][AuSBu(=S)]] ? 14.9 ± 0.13 x 105 L mol-1

----------
E1/2 −1/0, second value of cell (cathodic peak) values, listed per item
# assayInfo: Cyclic voltammetry
# Format: physicochemical
# experimentalSetup: CH2Cl2, NBu4PF6, Pt, 100 mV.s^−1
# Procedure: The redox properties of the various gold(III) bis(dithiolene) and bis(diselenolene) complexes were investigated by cyclic voltammetry using the same conditions, dichloromethane solutions and NBu4PF6 as supporting electrolyte. […] Thus, only the result of one monoanion is included in Table 1, even if the two salts were analyzed. […] All reagents and materials from commercial sources were used without further purification. […] Potentials were measured versus KCl Saturated Calomel Electrode (SCE). […]
Give the number; V vs. SCE is assumed, so skip it.

// lookup E1/2 −1/0, second value of cell (cathodic peak) for Cn1c2c(sc1=S)[S][Au-]1([S]c3sc(=S)n(C)c3[S]1)[S]2 [[AuSMe(=S)]^−1] 0.44
